# tested_on: CDK13 (Homo sapiens, UniProt Q14004)
# Sequence (Q14004 whole entry): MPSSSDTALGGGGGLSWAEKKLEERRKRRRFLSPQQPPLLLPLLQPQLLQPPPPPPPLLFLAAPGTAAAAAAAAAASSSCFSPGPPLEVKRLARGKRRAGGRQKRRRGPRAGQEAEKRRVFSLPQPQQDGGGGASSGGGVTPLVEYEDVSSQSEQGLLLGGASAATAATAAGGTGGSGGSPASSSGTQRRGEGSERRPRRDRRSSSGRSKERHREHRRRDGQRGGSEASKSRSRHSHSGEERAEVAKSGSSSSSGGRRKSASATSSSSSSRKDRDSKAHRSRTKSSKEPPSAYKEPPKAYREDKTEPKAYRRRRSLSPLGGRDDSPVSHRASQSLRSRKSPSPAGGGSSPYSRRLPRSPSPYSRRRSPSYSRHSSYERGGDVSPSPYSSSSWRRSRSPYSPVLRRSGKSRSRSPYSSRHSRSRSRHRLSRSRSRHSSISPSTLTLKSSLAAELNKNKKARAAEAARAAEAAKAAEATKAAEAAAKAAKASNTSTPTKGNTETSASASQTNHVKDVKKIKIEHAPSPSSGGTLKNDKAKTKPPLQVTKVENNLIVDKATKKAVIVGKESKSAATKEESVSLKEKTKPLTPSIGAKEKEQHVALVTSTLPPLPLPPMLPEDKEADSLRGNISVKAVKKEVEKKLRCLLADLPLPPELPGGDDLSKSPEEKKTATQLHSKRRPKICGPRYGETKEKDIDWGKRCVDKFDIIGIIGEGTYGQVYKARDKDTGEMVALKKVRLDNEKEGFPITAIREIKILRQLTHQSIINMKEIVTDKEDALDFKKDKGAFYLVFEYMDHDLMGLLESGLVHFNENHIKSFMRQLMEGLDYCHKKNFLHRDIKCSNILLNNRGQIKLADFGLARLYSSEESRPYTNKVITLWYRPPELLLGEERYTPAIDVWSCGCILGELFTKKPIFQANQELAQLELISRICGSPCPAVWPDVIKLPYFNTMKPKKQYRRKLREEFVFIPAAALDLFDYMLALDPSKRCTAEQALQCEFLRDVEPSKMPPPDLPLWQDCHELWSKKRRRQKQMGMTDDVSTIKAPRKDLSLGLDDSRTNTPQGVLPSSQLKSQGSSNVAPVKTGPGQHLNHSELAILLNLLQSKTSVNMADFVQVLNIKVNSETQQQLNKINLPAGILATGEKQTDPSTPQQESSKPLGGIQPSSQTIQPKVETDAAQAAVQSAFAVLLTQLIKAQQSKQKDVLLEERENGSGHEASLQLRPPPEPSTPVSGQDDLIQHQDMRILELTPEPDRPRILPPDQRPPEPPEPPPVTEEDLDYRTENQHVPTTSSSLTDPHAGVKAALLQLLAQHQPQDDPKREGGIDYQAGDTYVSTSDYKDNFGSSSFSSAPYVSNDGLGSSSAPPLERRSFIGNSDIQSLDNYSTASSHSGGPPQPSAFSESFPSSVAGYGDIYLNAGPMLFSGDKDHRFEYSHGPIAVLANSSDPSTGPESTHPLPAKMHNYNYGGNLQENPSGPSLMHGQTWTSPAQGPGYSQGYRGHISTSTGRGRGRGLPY
# Sequence (O75909 whole entry partner): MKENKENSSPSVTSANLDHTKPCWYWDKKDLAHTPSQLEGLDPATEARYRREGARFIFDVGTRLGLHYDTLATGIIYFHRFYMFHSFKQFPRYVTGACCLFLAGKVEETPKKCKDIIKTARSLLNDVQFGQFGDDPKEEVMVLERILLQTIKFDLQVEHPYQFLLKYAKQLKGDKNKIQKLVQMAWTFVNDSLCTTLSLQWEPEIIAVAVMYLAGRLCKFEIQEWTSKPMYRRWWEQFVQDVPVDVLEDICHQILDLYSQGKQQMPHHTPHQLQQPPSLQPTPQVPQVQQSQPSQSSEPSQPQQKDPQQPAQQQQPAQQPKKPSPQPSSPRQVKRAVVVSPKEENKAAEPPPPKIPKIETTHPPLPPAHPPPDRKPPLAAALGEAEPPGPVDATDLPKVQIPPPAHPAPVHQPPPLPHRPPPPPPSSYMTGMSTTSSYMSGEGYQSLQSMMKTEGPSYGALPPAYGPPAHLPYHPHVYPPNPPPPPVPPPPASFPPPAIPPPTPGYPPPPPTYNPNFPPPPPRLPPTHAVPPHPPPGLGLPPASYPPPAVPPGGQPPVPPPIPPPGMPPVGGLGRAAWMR
# procedure_summary: Western blot degradation of CDK13 (Example 2)
# Format: cell-based
# Parameters: degradation of CDK12/13 protein in leukemia cells KASUMI-1, MV4-11, and Jurkat; endogenous in cells
# experimental_context: DC50 classes; cell line not given; read-out: CDK13 degradation Activity
In this section we review reported DC50 values for a set of molecules.

molecule	DC50
Cc1ncsc1-c1ccc([C@H](C)NC(=O)[C@@H]2C[C@@H](O)CN2C(=O)[C@@H](NC(=O)C2CCN(c3ccc(-c4ccc(N(C(=O)NCc5ccccc5)[C@H]5CC[C@H](Nc6ccc(C#N)cn6)CC5)cc4)cn3)CC2)C(C)(C)C)cc1	500 to 1000 nM
Cc1ncsc1-c1ccc([C@H](C)NC(=O)[C@@H]2C[C@@H](O)CN2C(=O)[C@@H](NC(=O)CN2CCN(c3ccc(-c4ccc(N(C(=O)NCc5ccccc5)[C@H]5CC[C@H](Nc6ccc(C#N)cn6)CC5)cc4)cn3)CC2)C(C)(C)C)cc1 [Formula 71]	< 100 nM
Cc1ncsc1-c1ccc([C@H](C)NC(=O)[C@@H]2C[C@@H](O)CN2C(=O)[C@@H](NC(=O)CN2CCN(c3ncc(-c4ccc(N(C(=O)NCc5ccccc5)[C@H]5CC[C@H](Nc6ccc(C#N)cn6)CC5)cc4)cn3)CC2)C(C)(C)C)cc1 [Formula 80]	< 100 nM
